Here, each record is paired with measured pKi data.
- Measured Target: T1, human GLP-1 receptor (human, UniProt P43220 24-463)
- T1 construct: whole, on cells; Used as crude membranes of stably transfected HEK293 cells; also called hGLP1R; hGLP-1R
- Test Details: SPA, [125I]-GLP-1 displacement, hGLP-1R membranes
pKi: −log10 of the molar value.
Property: pKi

INSERT INTO results (binder, readout_value) VALUES
  ('YXEGTFTSDYSIXLDEKAQXAFIEYLLEGGPSSGAPPPS (Aib2; αMeL13; K17((2-[2-(2-Amino-ethoxy)-ethoxy]-acetyl)2-(γ-Glu)-CO-(CH2)18-CO2H); Aib20; C-terminal NH2) [Example 66]', 8.12),
  ('YXEGTFTSDYSIXLDKKAQXAFIEYLIEGGPSSGAPPPS (Aib2; αMeL13; K17((2-[2-(2-Amino-ethoxy)-ethoxy]-acetyl)2-(γ-Glu)-CO-(CH2)18-CO2H); Aib20; C-terminal NH2) [Example 20]', 8.48),
  ('YXEGTXTSDXSIXLDEKAQXEFIXYLIEGGPSSGAPPPS (Aib2; αMeF(2F)6; 4Pal10; αMeL13; K17((2-[2-(2-Amino-ethoxy)-ethoxy]-acetyl)2-(εK)-CO-(CH2)18-CO2H); Aib20; D-Glu24; C-terminal NH2) [Example 207]', 8.86);
